The measurements presented in this section are drawn from patent US10544144B2.

test system: Human Multiple Myeloma Cell KMS-11 (FGFR3 Y373C Mutation); test: MTT proliferation inhibition, KMS-11 cells; type: cell-based; conditions: Homo sapiens, 72 hours drug exposure
outcome measure: IC50 (µM)
Just the number in µM, nothing appended.

Would you kindly share the measured IC50 for COc1cc(OC)c(Cl)c(N2CCc3nc(Nc4ccc(N5CCC(N(C)C)CC5)nc4)ncc3C2)c1Cl ?
0.2

###

test system: Human Gastric Cancer Cell KATO-3 (FGFR2 Amplification); assay: MTT proliferation inhibition, KATO-3 cells; type: cell-based; settings: KATO3, MTT, 72 hours drug exposure, KATO-3 cells, read-out: KATo-3 (FGFR2 amplification) IC50
pIC50: −log10 of the molar value.
Assign class by pIC50: not lower than 8 means satisfied; lower than 8 means not satisfied.

- molecule: "CCN1CCN(c2ccc(Nc3ncc4c(n3)CCN(c3cc(C(=O)NC)cc(OC)c3Cl)C4)cn2)CC1 [Compound I-11]"
  tgt: "Human Gastric Cancer Cell KATO-3 (FGFR2 Amplification)"
  classification: "satisfied"
- molecule: "CCN1CCN(c2ccc(Nc3ncc4c(n3)CCN(c3c(Cl)c(OC)cc(OC)c3Cl)C4)cn2)CC1 [Compound I-8]"
  tgt: "Human Gastric Cancer Cell KATO-3 (FGFR2 Amplification)"
  classification: "satisfied"
- molecule: "COc1cc(OC)c(Cl)c(N2CCc3nc(Nc4ccc(N5CCN(CCO)CC5)nc4)ncc3C2)c1Cl [Compound I-14]"
  tgt: "Human Gastric Cancer Cell KATO-3 (FGFR2 Amplification)"
  classification: "not satisfied"
- molecule: "COc1cc(OC)c(Cl)c(N2CCc3nc(Nc4ccc(N5CCC(N(C)C)CC5)nc4)ncc3C2)c1Cl [Compound I-9]"
  tgt: "Human Gastric Cancer Cell KATO-3 (FGFR2 Amplification)"
  classification: "not satisfied"

Check this molecule for pIC50 at or above 8: CNC(=O)c1cc(OC)c(Cl)c(N2CCc3nc(Nc4ccc(N5CCC(N(C)C)CC5)cc4)ncc3C2)c1 [Compound I-13]
satisfied

COc1cc(OC)c(Cl)c(N2CCc3nc(Nc4ccc(N5CCC(N(C)C)CC5)cc4)ncc3C2)c1F [Compound I-15] ?
satisfied
